IC50 values for the compounds below.
Molecular target: ALK tyrosine kinase receptor (Homo sapiens, UniProt Q9UM73, L1196M)
Sequence (Q9UM73 19-1620 L1196M limits assumed): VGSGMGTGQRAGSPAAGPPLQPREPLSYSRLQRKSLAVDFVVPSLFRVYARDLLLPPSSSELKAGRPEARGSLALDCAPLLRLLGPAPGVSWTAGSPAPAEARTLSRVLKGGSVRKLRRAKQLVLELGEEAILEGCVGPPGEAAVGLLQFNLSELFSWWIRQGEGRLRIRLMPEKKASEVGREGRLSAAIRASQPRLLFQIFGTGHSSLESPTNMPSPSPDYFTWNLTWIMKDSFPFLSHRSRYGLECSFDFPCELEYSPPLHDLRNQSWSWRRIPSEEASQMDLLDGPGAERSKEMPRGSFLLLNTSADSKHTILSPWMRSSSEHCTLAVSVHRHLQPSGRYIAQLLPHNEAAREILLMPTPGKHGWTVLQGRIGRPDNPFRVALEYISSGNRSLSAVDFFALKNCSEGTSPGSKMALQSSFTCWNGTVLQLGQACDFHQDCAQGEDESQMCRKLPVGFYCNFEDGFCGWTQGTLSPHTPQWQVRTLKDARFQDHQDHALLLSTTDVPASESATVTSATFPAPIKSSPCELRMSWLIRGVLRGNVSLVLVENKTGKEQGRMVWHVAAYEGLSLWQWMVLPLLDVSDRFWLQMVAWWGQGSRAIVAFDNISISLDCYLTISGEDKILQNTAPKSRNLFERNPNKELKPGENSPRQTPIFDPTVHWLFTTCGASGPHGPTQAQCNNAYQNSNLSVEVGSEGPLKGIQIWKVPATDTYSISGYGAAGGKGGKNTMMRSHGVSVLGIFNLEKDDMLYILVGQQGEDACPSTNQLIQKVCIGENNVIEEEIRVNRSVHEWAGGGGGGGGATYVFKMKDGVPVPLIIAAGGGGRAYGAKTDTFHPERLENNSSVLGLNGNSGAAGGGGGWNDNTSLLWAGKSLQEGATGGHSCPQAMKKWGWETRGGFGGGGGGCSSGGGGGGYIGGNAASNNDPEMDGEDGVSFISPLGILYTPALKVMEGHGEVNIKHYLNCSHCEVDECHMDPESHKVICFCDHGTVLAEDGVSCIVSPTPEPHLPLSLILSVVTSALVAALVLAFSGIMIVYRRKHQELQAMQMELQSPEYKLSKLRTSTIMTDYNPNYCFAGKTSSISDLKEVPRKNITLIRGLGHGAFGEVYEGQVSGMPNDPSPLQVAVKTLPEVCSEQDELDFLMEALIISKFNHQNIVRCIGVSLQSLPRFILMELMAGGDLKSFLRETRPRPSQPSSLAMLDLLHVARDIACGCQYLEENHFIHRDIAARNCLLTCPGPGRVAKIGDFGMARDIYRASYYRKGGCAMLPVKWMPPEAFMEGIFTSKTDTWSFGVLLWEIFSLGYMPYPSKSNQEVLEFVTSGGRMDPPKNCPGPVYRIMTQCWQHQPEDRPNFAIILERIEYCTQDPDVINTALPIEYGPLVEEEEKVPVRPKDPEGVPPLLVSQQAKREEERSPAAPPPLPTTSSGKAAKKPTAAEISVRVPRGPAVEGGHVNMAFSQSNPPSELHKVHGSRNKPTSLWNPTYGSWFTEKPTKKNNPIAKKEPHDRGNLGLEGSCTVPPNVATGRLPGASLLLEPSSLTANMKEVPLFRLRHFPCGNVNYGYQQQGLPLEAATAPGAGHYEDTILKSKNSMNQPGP
Experiment: Inhibition of recombinant human ALK L1196M mutant using tyrosine kinase substrate-biotin after 30 mins by HTRF assay
Express the result in nM but write the number alone.

QUERY: Report IC50, nothing else, for this compound: Cc1cc(Nc2ncnc(Nc3cn(C)nc3S(=O)(=O)C(C)C)n2)c(OC2CC2)cc1C1CCN(C)CC1
RESULT: 111

New cases:
QUERY: Quote IC50 reported for Cc1nc(Nc2nc(Nc3cc(C)c(C4CCN(C)CC4)cc3OC3CC3)ncc2Cl)c(S(=O)(=O)C(C)C)s1 please.
RESULT: 19

QUERY: Output IC50 of Cc1cc(Nc2ncc(Cl)c(Nc3cn(C)nc3S(=O)(=O)C(C)C)n2)c(OC2CC2)cc1[C@H]1CC[C@@H](NC(C)C)CC1
RESULT: 10
